For each entry below, report its TGI value.
test system: KM12 colon; experiment: NCI tumour cell line growth inhibition, 48 h

As a guide, the following entries are already answered.
| compound | systemTested | resultValue |
| --- | --- | --- |
| FC(F)(F)c1cc(C2SCc3nc4ccccc4n32)cc(C(F)(F)F)c1 (stereo not given) | KM12 colon | > 100 µM |
| O=C(C(Cl)=C(N1CCOCC1)N1CCOCC1)C(Cl)Cl | KM12 colon | > 100 µM |
| COc1ccc2[nH]c3c(c2c1)[C@H](C)C[C@@H]1C(=O)N(c2ccccc2)C(=O)[C@H]31 | KM12 colon | 41.9 µM |
| CCCCn1c(-c2ccc([N+](=O)[O-])cc2)cs/c1=N/N=C1\C(=O)Nc2ccc(Br)cc21 | KM12 colon | 38.2 µM |
| COc1ccc(CN2C3CC2CN(c2ccc(-c4cc(OCC(C)(C)O)cn5ncc(C#N)c45)cn2)C3)cn1 | KM12 colon | > 100 µM |
| CSC(=S)N/N=C/c1nccc2ccccc12 | KM12 colon | 15.6 µM |
| S=c1cc(-c2ccc3c(c2)OCO3)s[nH]1 | KM12 colon | > 100 µM |
| COc1ccc(C(=O)c2ccc([As]=O)cc2)cc1 (stereo not given) | KM12 colon | 0.219 µM |
| C=C1C(=O)O[C@H]2[C@H]1CC/C(C=Nc1c(N)cc(C(F)(F)F)cc1Br)=C\CC[C@@]1(C)O[C@@H]21 | KM12 colon | 3.97 µM |

Please look up its TGI: CSc1n[nH]c(N)c1C(=O)Nc1ccccc1
> 100 µM
